tested on: kochia (Bassia scoparia); assay: Test A postemergence, kochia; type: in vivo; details: post-emergence, 240 h, 31 g ai/ha, 0 to 100 scale, 10 days, read-out: Plant response rating, Kochia
EXPERIMENTAL_ENDPOINT: pest or weed control at 31 g/ha (%)
Provide the reading as a plain figure in %.

Task: Need pest or weed control at 31 g/ha, item Cc1cc(C)c(N2CCC(OC3CCC3)C2=O)cc1NS(=O)(=O)C(F)(F)F (centres unmarked)
Result: 60

Task: Need pest or weed control at 31 g/ha, item C=CCOC1CCN(c2cc(NS(=O)(=O)C(F)(F)F)c(C)cc2C)C1=O (centres unmarked)
Result: 20

Task: Need pest or weed control at 31 g/ha, item Cc1cc(C)c(N(COC(=O)C(C)(C)C)S(=O)(=O)C(F)(F)F)cc1N1CCC(OC2CCC2)C1=O (centres unmarked)
Result: 60

Task: Need pest or weed control at 31 g/ha, item Cc1cc(C)c(N2CCC(OC3CCCC3)C2=O)cc1NS(=O)(=O)C(F)(F)F (centres unmarked)
Result: 20

Task: Need pest or weed control at 31 g/ha, item C#CCOC1CCN(c2cc(NS(=O)(=O)C(F)(F)F)c(C)cc2C)C1=O (centres unmarked)
Result: 30

Task: Need pest or weed control at 31 g/ha, item Cc1cc(C)c(N(COC(=O)C(C)(C)C)S(=O)(=O)C(F)(F)F)cc1N1CCC(OC2CCCC2)C1=O (centres unmarked)
Result: 20

Task: Need pest or weed control at 31 g/ha, item Cc1cc(C)c(N2CCC(OC3CC3)C2=O)cc1NS(=O)(=O)C(F)(F)F (centres unmarked)
Result: 50

Task: Need pest or weed control at 31 g/ha, item Cc1cc(C)c(N(COC(=O)C(C)(C)C)S(=O)(=O)C(F)(F)F)cc1N1CCC(OC2CC2)C1=O (centres unmarked)
Result: 70
